# System: c-Myc expression in HDMB03 cells
# Procedure Details: c-Myc expression inhibition, high content microscopy (HCM)
# Type: cell-based, human
# Condition Parameters: Homo sapiens, HD-MB03, Table 5; read-out: EC50 (μM) Myc-inhibition
Endpoint Label: EC50 (µM)

a: CC(=O)Nc1cccc(-c2ccc3c(c2)[C@H](Nc2ccc(Cl)cc2)C[C@H](C)N3C(C)=O)c1
b: CC(=O)Nc1cccc(-c2ccc3c(c2)[C@H](Nc2ccc(F)cc2)C[C@H](C)N3C(C)=O)c1
c: CC(=O)Nc1cccc(-c2ccc3c(c2)[C@H](Nc2ccccc2OC(F)(F)F)C[C@H](C)N3C(C)=O)c1
Rank the 3 molecules shown above by EC50, smallest number first. Reply with the labels, ordered as the question asks. b, c, a
(b: 0.04 µM, c: 0.11 µM, a: 0.68 µM)

Where do the numbers come from? From patent US11028051B2.
